# SYSTEM: T1, AFP158/HLA-A*02:01 complex (human)
# T1 construct: flowed over the chip in SPR; also called AFP158 pro
# EXPERIMENT: SPR, scFv captured, pMHC in flow;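 further: complex injected at several concentrations over crude scFv, association then running-buffer dissociation, KD estimated from kinetic on- and off-rate constants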
Labelling: Kd reported below 400 nM becomes Condition met; at or above becomes Condition not met.

INSERT INTO results (binder, assigned_category) VALUES
  ('LH98R (scFv, AS170036 VL1VH1 scFv mutein) scFv: QSALTQPRSVSGSPGQSVTISCAGTSSDVGSENYVSWYQQHPGKAPKLMIYQVNKRASGVPDRFSGSKSGNTASLTISGLQAEDEADYYCASYRSSDRNIVFGGGTKLTVLGGGGSGGGGSGGGGSEVQLVESGGGLVQPGGSLRLSCAASGFTFSSYAMSWVRQAPGKGLEWVSTINSGTGSPYYADSVKGRFTISRDNSKNTLYLQMNSLRAEDTAVYYCAKNFFDGSWFLGPPAMDYWGQGTLVTVSSHHHHHH', 'Condition met'),
  ('LD97G (scFv, AS170036 VL1VH1 scFv mutein) scFv: QSALTQPRSVSGSPGQSVTISCAGTSSDVGSENYVSWYQQHPGKAPKLMIYQVNKRASGVPDRFSGSKSGNTASLTISGLQAEDEADYYCASYRSSGHNIVFGGGTKLTVLGGGGSGGGGSGGGGSEVQLVESGGGLVQPGGSLRLSCAASGFTFSSYAMSWVRQAPGKGLEWVSTINSGTGSPYYADSVKGRFTISRDNSKNTLYLQMNSLRAEDTAVYYCAKNFFDGSWFLGPPAMDYWGQGTLVTVSSHHHHHH', 'Condition met'),
  ('LY93I (scFv, AS170036 VL1VH1 scFv mutein) scFv: QSALTQPRSVSGSPGQSVTISCAGTSSDVGSENYVSWYQQHPGKAPKLMIYQVNKRASGVPDRFSGSKSGNTASLTISGLQAEDEADYYCASIRSSDHNIVFGGGTKLTVLGGGGSGGGGSGGGGSEVQLVESGGGLVQPGGSLRLSCAASGFTFSSYAMSWVRQAPGKGLEWVSTINSGTGSPYYADSVKGRFTISRDNSKNTLYLQMNSLRAEDTAVYYCAKNFFDGSWFLGPPAMDYWGQGTLVTVSSHHHHHH', 'Condition not met'),
  ('LD97R (scFv, AS170036 VL1VH1 scFv mutein) scFv: QSALTQPRSVSGSPGQSVTISCAGTSSDVGSENYVSWYQQHPGKAPKLMIYQVNKRASGVPDRFSGSKSGNTASLTISGLQAEDEADYYCASYRSSRHNIVFGGGTKLTVLGGGGSGGGGSGGGGSEVQLVESGGGLVQPGGSLRLSCAASGFTFSSYAMSWVRQAPGKGLEWVSTINSGTGSPYYADSVKGRFTISRDNSKNTLYLQMNSLRAEDTAVYYCAKNFFDGSWFLGPPAMDYWGQGTLVTVSSHHHHHH', 'Condition not met'),
  ('LE32Y (scFv, AS170036 VL1VH1 scFv mutein) scFv: QSALTQPRSVSGSPGQSVTISCAGTSSDVGSYNYVSWYQQHPGKAPKLMIYQVNKRASGVPDRFSGSKSGNTASLTISGLQAEDEADYYCASYRSSDHNIVFGGGTKLTVLGGGGSGGGGSGGGGSEVQLVESGGGLVQPGGSLRLSCAASGFTFSSYAMSWVRQAPGKGLEWVSTINSGTGSPYYADSVKGRFTISRDNSKNTLYLQMNSLRAEDTAVYYCAKNFFDGSWFLGPPAMDYWGQGTLVTVSSHHHHHH', 'Condition not met');
